Data provenance is PubChem BioAssay (EPA / NIEHS).

# Read-out: Urokinase-type plasminogen activator receptor (uPAR), PLAUR (gene 5329)
# assayProtocol: BSK_BE3C_uPAR: BioMAP Diversity Plus: BE3C Assay for Urokinase-type plasminogen activator receptor (uPAR) Biomarker Activity (AID 2283039)
# reportedConditions: primary human bronchial epithelial cells; actives raise or lower the signal
Active and inactive are the calls of the source. How the source made its calls: active means hit-call score of the fitted dose curve at least 0.9, where 1 is the maximum; inactive means score below 0.9.
Output constraint: value belongs to active, inactive

What classification did CCCCCCCCCCCCc1ccccc1S(=O)(=O)O end up with in this test?
active

What classification did CC(O)CO (stereo unspecified) end up with in this test?
inactive

What classification did CCCCCCCCC(=O)O end up with in this test?
inactive

What classification did c1ccc2cc3c(ccc4ccccc43)cc2c1 end up with in this test?
inactive

What classification did CCCCCCCCOC(=O)CCCCCCCCC(=O)OCCCCCCCC end up with in this test?
inactive

What classification did Oc1cc2ccccc2c2ccccc12 end up with in this test?
active

What classification did CC(=O)CC(C)(C)O end up with in this test?
inactive

What classification did C#C[C@]1(O)CC[C@H]2[C@@H]3CCC4=CC(=O)CC[C@@H]4[C@H]3CC[C@@]21C end up with in this test?
inactive

What classification did CCC(=C(c1ccc(O)cc1)c1ccc(OCCN(C)C)cc1)c1ccccc1 end up with in this test?
active

What classification did CCc1nn(C2CCCCC2)c2cc(C3(C#N)CCC(C(=O)O)CC3)ccc12 (stereo unspecified) end up with in this test?
active

What classification did COCC(C)O (stereo unspecified) end up with in this test?
inactive

====

# Read-out: Nuclear factor erythroid 2-related factor 2 (Homo sapiens) (UniProt Q16236)
# Sequence (Q16236 whole entry, looked up): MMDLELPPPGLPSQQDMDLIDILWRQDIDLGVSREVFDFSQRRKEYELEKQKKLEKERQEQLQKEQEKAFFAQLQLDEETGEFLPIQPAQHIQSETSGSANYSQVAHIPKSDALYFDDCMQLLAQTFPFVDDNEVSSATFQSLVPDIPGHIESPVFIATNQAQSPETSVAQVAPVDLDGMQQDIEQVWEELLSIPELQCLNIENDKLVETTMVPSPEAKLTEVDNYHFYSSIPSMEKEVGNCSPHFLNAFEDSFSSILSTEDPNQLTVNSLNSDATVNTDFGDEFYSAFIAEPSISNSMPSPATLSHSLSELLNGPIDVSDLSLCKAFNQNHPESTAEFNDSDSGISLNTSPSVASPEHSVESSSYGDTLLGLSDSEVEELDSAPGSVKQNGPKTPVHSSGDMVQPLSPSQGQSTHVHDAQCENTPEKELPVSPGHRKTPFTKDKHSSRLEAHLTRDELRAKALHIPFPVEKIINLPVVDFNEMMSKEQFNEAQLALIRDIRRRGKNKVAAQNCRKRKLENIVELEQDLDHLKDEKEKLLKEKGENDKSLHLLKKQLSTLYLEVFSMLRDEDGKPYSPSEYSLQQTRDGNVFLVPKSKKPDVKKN
# assayProtocol: LTEA_HepaRG_NFE2L2: Life Technologies and Expression Analysis (LTEA) Assay for Nuclear factor erythroid 2-related factor 2 (NFE2L2) Transcription Factor using HepaRG (AID 2283527)
# reportedConditions: mRNA level, 48 h; actives raise or lower the signal
Activity calls are given as the source filed them. Rule for the calls: active = hit-call score of the fitted dose curve at least 0.9, where 1 is the maximum; inactive = score below 0.9.
Output constraint: value belongs to y (active), n (inactive)

Recorded results for 4 compounds are shown here.
compound: CCC(C)(C)C1CCC(O)CC1 (stereo not given)
answerLabel: n
--
compound: C=C(C)C(=O)OCCC(F)(F)C(F)(F)C(F)(F)C(F)(F)C(F)(F)C(F)(F)F
answerLabel: n
--
compound: Cc1cc(CCN2CCN(c3nsc4ccccc34)CC2)cc2c1NC(=O)CC2(C)C
answerLabel: y
--
compound: O=c1c(-c2ccc(O)cc2)coc2cc(O)ccc12
answerLabel: n

What classification did Cc1oc(-c2ccccc2)nc1CCOc1ccc(C[C@H](Nc2ccccc2C(=O)c2ccccc2)C(=O)O)cc1 end up with in this test?
y

====

# assayProtocol: BSK_3C_TissueFactor: BioMAP Diversity Plus: 3C Assay for Tissue Factor Biomarker Activity (AID 2282997)
# reportedConditions: BioMAP 3C HUVEC, tissue factor biomarker readout; actives raise or lower the signal
Activity calls are given as the source filed them. The calls were made as follows: active = hit-call score of the fitted dose curve at least 0.9, where 1 is the maximum; inactive = score below 0.9.
Output constraint: value belongs to active, inactive

compound: CC(C)(C)CC(C)(C)c1ccc(O)c(-n2nc3ccccc3n2)c1
answerLabel: inactive
//
compound: CC[C@H](c1ccc(O)cc1)[C@@H](CC)c1ccc(O)cc1
answerLabel: active

What classification did C#C[C@]1(O)CC[C@H]2[C@@H]3CCC4=CC(=O)CC[C@@H]4[C@H]3CC[C@@]21C end up with in this test?
active

What classification did Oc1cccc(O)c1 end up with in this test?
inactive
